Provide the recorded EC50 for the entries that follow.
# assay.system: GPR39 (Homo sapiens)
# Sequence (O43194 whole entry): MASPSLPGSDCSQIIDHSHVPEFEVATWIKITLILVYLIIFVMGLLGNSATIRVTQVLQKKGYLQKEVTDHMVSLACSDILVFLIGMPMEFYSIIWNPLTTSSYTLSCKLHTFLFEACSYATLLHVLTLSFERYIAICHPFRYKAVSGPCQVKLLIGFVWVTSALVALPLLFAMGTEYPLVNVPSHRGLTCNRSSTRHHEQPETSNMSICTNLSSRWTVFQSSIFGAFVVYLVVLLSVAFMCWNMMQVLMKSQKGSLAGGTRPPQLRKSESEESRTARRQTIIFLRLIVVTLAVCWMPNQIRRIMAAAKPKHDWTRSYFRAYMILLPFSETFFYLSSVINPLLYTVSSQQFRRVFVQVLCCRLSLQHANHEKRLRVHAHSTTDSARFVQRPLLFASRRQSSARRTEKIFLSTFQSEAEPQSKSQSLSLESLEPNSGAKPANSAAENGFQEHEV
# protocol.details: DMR positive allosteric modulator (PAM) experiments, compound and Zn^2+ interdependencies
# Type: cell-based
# Set-up: Full length human (AF034633), rat (DM091294) and mouse (BC085285) GPR39; expressed in transfected cells
# experimental.context: [Zn2+] μM: 2e-5
Answer as a quantity: numeral, then unit.

Let me check: Cc1nc(-c2nc3c(c(=O)[nH]2)CN(C(=O)c2cccc(Cl)c2F)CC3)cs1 , system GPR39 (Homo sapiens), measured EC50 is 0.0095 µM

Let me check: Cc1nc2c(C(=O)O)cnn2c(O)c1Cc1ccc(Cl)cc1 , system GPR39 (Homo sapiens), measured EC50 is 0.0074 µM

Let me check: N#Cc1ccc(OCCn2ccnc2)c(OCCn2ccnc2)c1 , system GPR39 (Homo sapiens), measured EC50 is 0.0035 µM
